Target: T1, rhNav1.7α + β1-β2-β3 (rhesus monkey)
T1 construct: also called rhNav1.7-beta1-beta2-beta3; rhNav1.7-β1-β2-β3
Test: FACS, CHO Flp-In, competitor 1 µM IRR00092
measured.endpoint: MFI (MFI)
Answers are plain numbers, in MFI.

Entry F0103PMP495F09 (bispecific antibody, crude periplasmic extract; also called F103275B05(N93R)-50GS-F0103495F09 bivalent ISVD) EVQLVESGGGLVQPGGSLRLSCAASGSIFNINSMAWYRRAPGKQRELVASSTNGGSTNYADSVKGRFTISRDNAKRVYLQMNSLTPEDTAVYYCRALLQPSIYDISRTYWGQGTLVTVSSGGGGSGGGGSGGGGSGGGGSGGGGSGGGGSGGGGSGGGGSGGGGSGGGGSEVQLVESGGGLVQAGSSLSLSCAASGRALSTYAMGWFRQAPGKEREFVARISRSGITTYYTDSVKGRFTISRDRAKDTVYLQMNSLKPEDTAIYLCAADASTNPAGYYLRNRYDYWGQGTLVTVSSAAADYKDHDGDYKDHDIDYKDDDDKGAAHHHHHHKAAGGGGG , MFI reported as 90400
